Cited source: patent US11008333B2

experiment: Measurement of water solubility (HPLC); type: physicochemical; details: non-ionic water; 500 mg in 5 mL (conc. of solution 100 mg/mL); 2θ° C. to 25° C.; amount dissolved based on compound of Formula 1; HPLC
Property: log10(Solubility) (log10 of the value in µg/mL)
Scale type: logarithmic (base 10). Underlying Solubility unit: µg/mL.

Below: 5 molecules and their reported log10(Solubility).
C=CC(=O)Nc1cccc(Oc2nc(Nc3ccc(N4CCN(C)CC4)cc3)nc3ccsc23)c1 [Example 3] ... 3.89
C=CC(=O)Nc1cccc(Oc2nc(Nc3ccc(N4CCN(C)CC4)cc3)nc3ccsc23)c1 [Example 6] ... 2.76
C=CC(=O)Nc1cccc(Oc2nc(Nc3ccc(N4CCN(C)CC4)cc3)nc3ccsc23)c1 [Example 5] ... 2.62
C=CC(=O)Nc1cccc(Oc2nc(Nc3ccc(N4CCN(C)CC4)cc3)nc3ccsc23)c1 [Example 1] ... 4.70
C=CC(=O)Nc1cccc(Oc2nc(Nc3ccc(N4CCN(C)CC4)cc3)nc3ccsc23)c1 [Example 4] ... 4.03

Let us examine a further case.
Output measured log10(Solubility) for this item: C=CC(=O)Nc1cccc(Oc2nc(Nc3ccc(N4CCN(C)CC4)cc3)nc3ccsc23)c1 [Formula 1 (amorphous free base)]
-1.00

====

test: Measurement of water solubility (HPLC); format: physicochemical; conditions: solution of the water solubility test, 100 mg/mL in water
// -1 strictly below 5 in pH of solution; 1 otherwise

C=CC(=O)Nc1cccc(Oc2nc(Nc3ccc(N4CCN(C)CC4)cc3)nc3ccsc23)c1 [Formula 1 (amorphous free base)] ... 1
C=CC(=O)Nc1cccc(Oc2nc(Nc3ccc(N4CCN(C)CC4)cc3)nc3ccsc23)c1 [Example 4] ... -1
C=CC(=O)Nc1cccc(Oc2nc(Nc3ccc(N4CCN(C)CC4)cc3)nc3ccsc23)c1 [Example 3] ... -1
C=CC(=O)Nc1cccc(Oc2nc(Nc3ccc(N4CCN(C)CC4)cc3)nc3ccsc23)c1 [Example 1] ... -1

Please find the next compound below.
Please check the record C=CC(=O)Nc1cccc(Oc2nc(Nc3ccc(N4CCN(C)CC4)cc3)nc3ccsc23)c1 [Example 5] and state if its pH of solution is at or above 5.
-1
